All values here come from paper PMC7407158.

# CC50 annotations
experiment: in vitro; conditions: African green monkey

In the examples that follow, each entry is paired with its recorded CC50.
Answer with reported CC50 of Nc1ccn(C[C@@H](CO)OCP(=O)(O)O)c(=O)n1
> 250 µM

Answer with reported CC50 of Nc1nc(O)c2ncn(COC(CO)CO)c2n1
> 100 µM

Answer with reported CC50 of COc1c(C)c2c(c(O)c1C/C=C(\C)CCC(=O)O)C(=O)OC2
> 100 µM

Answer with reported CC50 of NC(=O)c1ncn([C@@H]2O[C@H](CO)[C@@H](O)[C@H]2O)n1
> 250 µM

Query compound follows.
Answer with reported CC50 of Nc1nc2c(ncn2COCCO)c(=O)[nH]1
> 250 µM

---

# CC50 annotations
assay: in vitro; settings: dog

In the examples that follow, each entry is paired with its recorded CC50.
Answer with reported CC50 of CCCCCCS(=O)(=O)NCCNC(=O)[C@H]1NC(=O)[C@H]2NC(=O)[C@H](NC(=O)[C@@H]3NC(=O)[C@H](CC(N)=O)NC(=O)[C@H](N)[C@H](O)c4ccc(c(Cl)c4)Oc4cc3cc(c4O)Oc3ccc(cc3Cl)[C@H]2O)c2ccc(O)c(c2)-c2c(O)cc(O)cc21
> 100 µM

Answer with reported CC50 of CCCCCCS(=O)(=O)NC1C(=O)NC(CC(N)=O)C(=O)NC2C(=O)NC3C(=O)NC(C(=O)NC(C(=O)O)c4cc(O)cc(O)c4-c4cc3ccc4O)C(O)c3ccc(c(Cl)c3)Oc3cc2cc(c3O)Oc2ccc(cc2Cl)C1O (stereo not drawn)
100 µM

More entries:
Answer with reported CC50 of CC(=O)N[C@H]1[C@H]([C@H](O)[C@H](O)CO)OC(C(=O)O)=C[C@@H]1N=C(N)N [Zanamivir, reference compound]
> 100 µM

---

# pEC50 annotations
system: vaccinia virus (strain Lederle); assay: microbe, parasite or virus in culture; assay type: cell-based; conditions: Orthopoxvirus vaccinia, HEL, read-out: Antiviral EC50 Vaccinia Virus
pEC50: −log10 of the molar value.

In the examples that follow, each entry is paired with its recorded pEC50.
Answer with reported pEC50 of Nc1ccn(C[C@@H](CO)OCP(=O)(O)O)c(=O)n1 [Cidofovir]
4.43

Answer with reported pEC50 of Nc1nc2c(ncn2COCCO)c(=O)[nH]1 [Aciclovir]
< 3.60

More entries:
Answer with reported pEC50 of Nc1nc(O)c2ncn(COC(CO)CO)c2n1 [Ganciclovir]
< 4.00

---

tested on: S. epidermidis ATCC 35984; experiment: Broth microdilution MIC, S. epidermidis ATCC 35984; format: cell-based; conditions: Staphylococcus epidermidis, ATCC35984, read-out: In Vitro MIC
# MIC annotations
# unit: µg/mL | format: bare number

Answer with reported MIC of CN[C@H](CC(C)C)C(=O)N[C@H]1C(=O)N[C@@H](CC(N)=O)C(=O)N[C@H]2C(=O)N[C@H]3C(=O)N[C@H](C(=O)N[C@H](C(=O)O)c4cc(O)cc(O)c4-c4cc3ccc4O)[C@H](O)c3ccc(c(Cl)c3)Oc3cc2cc(c3O[C@@H]2O[C@H](CO)[C@@H](O)[C@H](O)[C@H]2O[C@H]2C[C@](C)(N)[C@H](O)[C@H](C)O2)Oc2ccc(cc2Cl)[C@H]1O [VAN, vancomycin]
2

Answer with reported MIC of CCCCSC1=C(SCCCC)C(=O)N(CCOCCOCCOCCOCc2cn(CCNC(=O)[C@H]3NC(=O)[C@H]4NC(=O)[C@H](NC(=O)[C@@H]5NC(=O)[C@H](CC(N)=O)NC(=O)[C@H](N)[C@H](O)c6ccc(c(Cl)c6)Oc6cc5cc(c6O)Oc5ccc(cc5Cl)[C@H]4O)c4ccc(O)c(c4)-c4c(O)cc(O)cc43)nn2)C1=O [Compound 12]
128

Answer with reported MIC of CCCCCCS(=O)(=O)NC1C(=O)NC(CC(N)=O)C(=O)NC2C(=O)NC3C(=O)NC(C(=O)NC(C(=O)O)c4cc(O)cc(O)c4-c4cc3ccc4O)C(O)c3ccc(c(Cl)c3)Oc3cc2cc(c3O)Oc2ccc(cc2Cl)C1O (centres unmarked) [Compound 8]
32

More entries:
Answer with reported MIC of CCCCCCCCCCOCc1cn(CCOCCOCCOCCOCc2cn(CCNC(=O)[C@H]3NC(=O)[C@H]4NC(=O)[C@H](NC(=O)[C@@H]5NC(=O)[C@H](CC(N)=O)NC(=O)[C@H](N)[C@H](O)c6ccc(c(Cl)c6)Oc6cc5cc(c6O)Oc5ccc(cc5Cl)[C@H]4O)c4ccc(O)c(c4)-c4c(O)cc(O)cc43)nn2)nn1 [Compound 11]
256

Answer with reported MIC of CCCCCCS(=O)(=O)NCCNC(=O)[C@H]1NC(=O)[C@H]2NC(=O)[C@H](NC(=O)[C@@H]3NC(=O)[C@H](CC(N)=O)NC(=O)[C@H](N)[C@H](O)c4ccc(c(Cl)c4)Oc4cc3cc(c4O)Oc3ccc(cc3Cl)[C@H]2O)c2ccc(O)c(c2)-c2c(O)cc(O)cc21 [Compound 13]
128
